- system: serotoninergic receptor 5-HT2C (Homo sapiens, UniProt P28335)
- Construct: expressed in transfected cells; host or cells: HEK-293 cells
- Sequence (P28335 33-458): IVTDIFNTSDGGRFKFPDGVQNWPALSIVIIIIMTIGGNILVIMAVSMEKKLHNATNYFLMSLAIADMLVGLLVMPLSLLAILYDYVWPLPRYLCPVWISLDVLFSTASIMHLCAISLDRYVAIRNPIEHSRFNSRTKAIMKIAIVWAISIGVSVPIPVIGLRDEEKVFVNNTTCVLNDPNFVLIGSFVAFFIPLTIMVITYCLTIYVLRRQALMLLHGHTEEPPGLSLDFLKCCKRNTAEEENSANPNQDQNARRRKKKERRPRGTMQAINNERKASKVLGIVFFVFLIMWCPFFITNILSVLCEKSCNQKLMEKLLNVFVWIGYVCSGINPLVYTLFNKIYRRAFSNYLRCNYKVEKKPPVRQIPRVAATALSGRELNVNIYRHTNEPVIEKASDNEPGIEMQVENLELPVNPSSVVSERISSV
- test description: Binding assay 5-HT2C (h), [3H]mesulergine, HEK-293 cells
- stated conditions: read-out: 5-HT2C [%]
Each record gets a class by inhibition at 1 µM: low interval = under 80%, middle interval = from 80% up to 90%, high interval = 90% and over

Sample answers from the record:
| mol | assigned category |
| --- | --- |
| Cc1cccc(S(=O)(=O)NCCCN2CCC(c3noc4cc(F)ccc34)CC2)c1 | low interval |
| Cc1c(S(=O)(=O)NCCCN2CCN(c3nsc4ccccc34)CC2)sc2ccc(F)cc12 | middle interval |
| O=c1[nH]c2ccc(S(=O)(=O)NCCN3CCN(c4nsc5ccccc45)CC3)cc2o1 | low interval |
| O=S(=O)(NCCCCN1CCN(c2cccc3[nH]ccc23)CC1)c1ccc(F)cc1 | low interval |
| O=S(=O)(NCCCN1CCN(c2nsc3ccccc23)CC1)c1ccc(Cl)c(Cl)c1 | middle interval |

Prompt: Which category fits this record: O=S(=O)(NCCCCN1CCN(c2nsc3ccccc23)CC1)c1ccc(F)c(Cl)c1
Completion: high interval

Prompt: Which category fits this record: O=S(=O)(NCCCCN1CCN(c2cccc3[nH]ccc23)CC1)c1cc2ccc(Cl)cc2s1
Completion: low interval

Prompt: Which category fits this record: O=S(=O)(NCCCCN1CCN(c2nsc3ccccc23)CC1)c1ccc2cc(Cl)ccc2c1
Completion: high interval

---

- system: serotoninergic 5-HT7 receptor (Homo sapiens)
- Sequence (P34969 whole entry): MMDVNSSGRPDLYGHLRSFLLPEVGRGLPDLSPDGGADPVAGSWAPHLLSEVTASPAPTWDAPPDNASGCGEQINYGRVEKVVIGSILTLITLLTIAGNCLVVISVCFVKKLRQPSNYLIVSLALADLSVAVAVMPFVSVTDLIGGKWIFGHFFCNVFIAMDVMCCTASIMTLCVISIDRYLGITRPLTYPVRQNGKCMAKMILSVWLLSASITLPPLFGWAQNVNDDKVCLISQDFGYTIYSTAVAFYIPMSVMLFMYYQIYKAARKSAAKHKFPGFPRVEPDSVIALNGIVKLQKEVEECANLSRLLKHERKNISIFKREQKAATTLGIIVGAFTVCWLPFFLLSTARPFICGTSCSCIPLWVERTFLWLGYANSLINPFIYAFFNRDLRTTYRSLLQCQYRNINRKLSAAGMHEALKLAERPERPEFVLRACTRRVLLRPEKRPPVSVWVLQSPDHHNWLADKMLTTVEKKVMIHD
- test description: Binding assay 5-HT7 (h), [3H]LSD, CHO cells
- Set-up: expressed in transfected cells; host or cells: CHO cells
- stated conditions: read-out: 5-HT7
Let's look at some molecules and their measured inhibition at 1 µM.
# value in %; strip the unit string

Solved entries:
| mol | metric name | unit abbrev | measured |
| --- | --- | --- | --- |
| O=S(=O)(NCCCCN1CCN(c2cccc3[nH]ccc23)CC1)c1cccc(F)c1 | inhibition at 1 µM | % | 92 |
| O=S(=O)(NCCCCN1CCC(c2noc3cc(F)ccc23)CC1)c1cccc(Br)c1 | inhibition at 1 µM | % | 92 |

Now look at this entry.
Prompt: I would be grateful if you could share the reported inhibition at 1 µM for O=S(=O)(NCCCCN1CCN(c2cccc3c2OCCO3)CC1)c1cccc(Br)c1 .
Completion: 92
